Target of assay: LZK (Homo sapiens, UniProt O43283)
Construct: 10 nM LZK, catalytic domain, Carna Biosiences in assay buffer; purchased Carna Biosciences ('Carna Biosiences' [sic])
Sequence (O43283 168-409 limits assumed): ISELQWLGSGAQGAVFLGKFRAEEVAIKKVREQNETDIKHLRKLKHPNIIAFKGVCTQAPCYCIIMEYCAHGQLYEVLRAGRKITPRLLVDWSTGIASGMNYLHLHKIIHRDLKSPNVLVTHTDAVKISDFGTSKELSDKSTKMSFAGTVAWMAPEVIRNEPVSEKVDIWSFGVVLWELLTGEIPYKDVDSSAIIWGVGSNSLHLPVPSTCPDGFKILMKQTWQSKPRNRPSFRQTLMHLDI
Test method notes: LZK biochemical assay (TR-FRET, MKK7 phosphorylation)
Test conditions: LZK catalytic domain, MKK7 substrate, 15 μM ATP
Experimental: LZK assay is a biochemical assay format designed to screen for inhibitors of LZK. Enzymatic activity of LZK is measured by monitoring phosphorylation of the physiological substrate MKK7 (MAP2K7, Dual specificity mitogen-activated protein kinase kinase 7). Phosphorylation is detected by a TR-FRET system whereby His-tagged MKK7 is labeled by a XL665-labeled anti-His antibody (FRET acceptor, emission 665 nm). […]
Parameter: IC50 (µM)

Please review the entries below; each comes with its answer.
CC[C@H](C)NC(=O)c1cc(-c2cnn(C(c3ccc(C(F)(F)F)nc3)C3CC3)c2)cc2nc(N)nn12 (single isomer, unassigned) [Example I-108] : 0.017
CC[C@@H](c1ccc(F)cc1)n1cc(-c2cc(C(=O)NC(C)CF)n3nc(N)nc3c2)cn1 (single isomer, unassigned) [Example I-150] : 0.06
CC(C)C(c1ccc(C(F)(F)F)nc1)n1cc(-c2cc(C(=O)N[C@H]3CCOC3)n3nc(N)nc3c2)cn1 (single isomer, unassigned) [Example I-182] : 0.0012
CC[C@H](C)NC(=O)c1cc(-c2cnn(C(c3ccc(OCC(F)(F)F)nc3)C(C)C)c2)cc2nc(N)nn12 (single isomer, unassigned) [Example I-117] : 0.25
Nc1nc2c(C(=O)NC3CNC(=O)C3)cc(-c3cnn(Cc4ccc(F)cc4)c3)cn2n1 (racemic) [Example I-136] : 0.21

(A) CC[C@H](C)NC(=O)c1cc(-c2cnn(C(c3ccnc(OC)c3)C(C)C)c2)cc2nc(N)nn12 (single isomer, unassigned) [Example I-127]
(B) Nc1nc2cc(-c3cnn(C4CCOCC4)c3)cc(C(=O)N[C@H]3CCOC3)n2n1 (single isomer, unassigned) [Example I-176]
(C) CC[C@H](C)NC(=O)c1cc(-c2cnn(C(c3ccccc3)C3CCOCC3)c2)cc2nc(N)nn12 (single isomer, unassigned) [Example I-53]
Query: Task field, ranking: reported IC50, descending order. Please express your ranking as an ordered list of the labels.
Result: B, A, C
(B: 0.21 µM, A: 0.052 µM, C: 0.024 µM)

(A) CCC(c1ccc(N2CCOCC2)cc1)n1cc(-c2cc(C(=O)N[C@@H](C)CC)c3nc(N)nn3c2)cn1 (single isomer, unassigned) [Example I-48]
(B) CC[C@H](C)NC(=O)c1cc(-c2cnn([C@@H](CC)c3cncc(Cl)c3)c2)cn2nc(N)nc12 (single isomer, unassigned) [Example I-60]
(C) CCC(c1ccc(C(F)(F)F)nc1)n1cc(-c2cc(C(=O)N[C@@H](C)CC)n3nc(N)nc3c2)cn1 (mixture of isomers) [Example I-101]
Query: Task field, ranking: reported IC50, descending order. Please express your ranking as an ordered list of the labels.
Result: A, B, C
(A: 0.12 µM, B: 0.0089 µM, C: 0.0028 µM)
